- Tested on: NCI-H292 lung cancer cells
- PROCEDURE DETAILS: FDA drug screening, complete media vs cholesterol-free media with simvastatin (TABLE 2)
- Type: cell-based, human
- STUDY CONDITIONS: NCI-H292 cells, FDA drug library screen, complete media

>  <COMPOUND>
O=c1[nH]c(=O)n(C2CCCO2)cc1F (stereo not shown)

>  <Complete Media>
1.263

$$$$
>  <COMPOUND>
O=[N+]([O-])c1ccc(O)c2ncccc12

>  <Complete Media>
1.743

$$$$
>  <COMPOUND>
C/C=C/C1=C(C(=O)O)N2C(=O)[C@@H](NC(=O)[C@H](N)c3ccc(O)cc3)[C@H]2SC1.O [Cefprozil (monohydrate)]

>  <Complete Media>
1.216

$$$$
>  <COMPOUND>
CC(C)(C)NC(=O)N[C@H](C(=O)N1C[C@H]2[C@@H]([C@H]1C(=O)NC(CC1CCC1)C(=O)C(N)=O)C2(C)C)C(C)(C)C (stereo partly shown)

>  <Complete Media>
1.414

$$$$
